Target: EGFR (Homo sapiens, UniProt P00533)
Construct: Add 7 ug A431 cell lysate per well (EGFR source); endogenous in cells; host or cells: A431
Sequence (P00533 25-1210): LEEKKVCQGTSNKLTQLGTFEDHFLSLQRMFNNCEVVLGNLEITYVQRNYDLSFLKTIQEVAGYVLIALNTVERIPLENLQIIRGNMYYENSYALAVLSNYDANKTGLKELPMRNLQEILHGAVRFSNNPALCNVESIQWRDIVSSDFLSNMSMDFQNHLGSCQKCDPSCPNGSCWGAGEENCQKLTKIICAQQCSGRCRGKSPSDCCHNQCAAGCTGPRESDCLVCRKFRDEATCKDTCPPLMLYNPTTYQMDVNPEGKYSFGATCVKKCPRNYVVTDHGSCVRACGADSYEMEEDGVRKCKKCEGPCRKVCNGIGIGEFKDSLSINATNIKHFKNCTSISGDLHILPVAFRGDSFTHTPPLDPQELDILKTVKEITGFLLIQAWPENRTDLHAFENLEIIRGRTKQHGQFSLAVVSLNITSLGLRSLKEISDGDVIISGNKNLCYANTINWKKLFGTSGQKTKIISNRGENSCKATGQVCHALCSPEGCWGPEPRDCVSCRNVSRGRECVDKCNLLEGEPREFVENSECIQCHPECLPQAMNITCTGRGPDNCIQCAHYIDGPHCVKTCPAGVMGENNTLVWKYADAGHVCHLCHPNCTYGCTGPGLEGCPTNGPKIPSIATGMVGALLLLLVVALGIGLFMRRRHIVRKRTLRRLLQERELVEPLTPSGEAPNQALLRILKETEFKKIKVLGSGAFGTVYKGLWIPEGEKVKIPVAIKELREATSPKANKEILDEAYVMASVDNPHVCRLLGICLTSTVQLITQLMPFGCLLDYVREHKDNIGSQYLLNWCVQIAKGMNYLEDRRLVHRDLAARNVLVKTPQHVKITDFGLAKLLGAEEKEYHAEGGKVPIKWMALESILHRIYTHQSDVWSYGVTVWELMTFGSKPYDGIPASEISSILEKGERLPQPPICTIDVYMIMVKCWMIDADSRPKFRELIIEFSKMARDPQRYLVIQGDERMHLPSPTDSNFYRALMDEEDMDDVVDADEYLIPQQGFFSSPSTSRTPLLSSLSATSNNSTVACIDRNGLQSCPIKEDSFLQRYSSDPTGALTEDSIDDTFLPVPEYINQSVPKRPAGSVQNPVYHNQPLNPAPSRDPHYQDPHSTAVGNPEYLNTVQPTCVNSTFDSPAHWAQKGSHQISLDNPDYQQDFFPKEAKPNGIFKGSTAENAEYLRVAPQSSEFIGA
Experiment: EGFR ELISA assay (in vitro kinase activity, EGFR captured from A431 cell lysate)
Format: biochemical
Design: concentration or dose not given beside the values
Mark class 1 only when Biochem EGFR %Inhibition stays strictly below 20%. Values equal to the cut-off are class 0.

Query :: Hi there! Is Biochem EGFR %Inhibition for COc1cc(C=C2C(=O)Nc3ccc(I)cc32)cc(OC)c1OC below 20%, do you know?
Result :: class 0

Query :: Hi there! Is Biochem EGFR %Inhibition for CC(C)(C)c1cc(C=C2C(=O)Nc3c(Br)cc(Br)cc32)c(O)c(C(C)(C)C)c1 below 20%, do you know?
Result :: class 1

Query :: Hi there! Is Biochem EGFR %Inhibition for O=C(O)COc1ccccc1C=C1C(=O)Nc2ccc(I)cc21 below 20%, do you know?
Result :: class 1

Query :: Hi there! Is Biochem EGFR %Inhibition for O=C1Nc2c(Br)cc(Br)cc2C1=Cc1cc(Cl)cc(Br)c1O below 20%, do you know?
Result :: class 0

Query :: Hi there! Is Biochem EGFR %Inhibition for CCOc1cccc(C=C2C(=O)Nc3ccc(Br)c(C)c32)c1O below 20%, do you know?
Result :: class 1

Query :: Hi there! Is Biochem EGFR %Inhibition for O=C1Nc2ccc(S(=O)(=O)N3CCOCC3)cc2C1=Cc1ccc(O)c(O)c1 below 20%, do you know?
Result :: class 1

Query :: Hi there! Is Biochem EGFR %Inhibition for O=C1Nc2ccc(S(=O)(=O)Nc3ccc(C(F)(F)F)cc3)cc2C1=Cc1ccc(O)cc1O below 20%, do you know?
Result :: class 0

Query :: Hi there! Is Biochem EGFR %Inhibition for Cc1c(Br)ccc2c1C(=Cc1c(F)cccc1C(F)(F)F)C(=O)N2 below 20%, do you know?
Result :: class 1

Query :: Hi there! Is Biochem EGFR %Inhibition for O=C1Nc2ccc(S(=O)(=O)Nc3ccc(C(F)(F)F)cc3)cc2C1=Cc1c(F)cccc1C(F)(F)F below 20%, do you know?
Result :: class 1

====

Molecular target: UniProtKB P09619
Sequence (P09619 33-1106, species assumed): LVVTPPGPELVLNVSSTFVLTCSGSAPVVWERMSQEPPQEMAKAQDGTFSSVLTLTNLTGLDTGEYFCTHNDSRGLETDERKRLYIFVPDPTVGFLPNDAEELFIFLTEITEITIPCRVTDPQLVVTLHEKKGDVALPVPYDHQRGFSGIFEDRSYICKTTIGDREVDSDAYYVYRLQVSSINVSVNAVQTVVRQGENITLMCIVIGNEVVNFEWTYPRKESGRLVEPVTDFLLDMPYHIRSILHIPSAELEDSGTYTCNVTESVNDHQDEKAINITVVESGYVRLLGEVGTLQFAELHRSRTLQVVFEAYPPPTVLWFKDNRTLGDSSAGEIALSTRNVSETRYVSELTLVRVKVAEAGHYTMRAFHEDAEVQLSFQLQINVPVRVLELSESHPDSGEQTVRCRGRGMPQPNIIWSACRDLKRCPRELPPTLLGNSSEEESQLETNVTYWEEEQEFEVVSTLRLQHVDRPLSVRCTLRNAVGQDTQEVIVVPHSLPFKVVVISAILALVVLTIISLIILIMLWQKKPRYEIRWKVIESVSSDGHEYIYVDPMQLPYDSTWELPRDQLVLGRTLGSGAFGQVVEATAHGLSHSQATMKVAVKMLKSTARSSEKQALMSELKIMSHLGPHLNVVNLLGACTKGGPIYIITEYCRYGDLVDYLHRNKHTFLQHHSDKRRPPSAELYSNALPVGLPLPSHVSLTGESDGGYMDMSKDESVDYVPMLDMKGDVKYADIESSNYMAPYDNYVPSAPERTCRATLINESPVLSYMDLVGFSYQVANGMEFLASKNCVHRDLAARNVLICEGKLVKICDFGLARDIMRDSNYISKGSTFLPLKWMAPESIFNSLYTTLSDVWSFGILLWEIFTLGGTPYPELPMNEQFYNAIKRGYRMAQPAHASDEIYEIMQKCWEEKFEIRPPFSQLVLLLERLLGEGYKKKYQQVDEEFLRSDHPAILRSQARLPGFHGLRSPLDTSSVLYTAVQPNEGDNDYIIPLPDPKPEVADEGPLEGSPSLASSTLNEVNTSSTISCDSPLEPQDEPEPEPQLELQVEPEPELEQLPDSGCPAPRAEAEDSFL
Test: PDGF-R ELISA
Assay type: cell-based
assay.readout: PDGF Kinase %Inhibition (%)
Kindly provide the numeric value in % only, without the unit symbol.

Query :: Enter reported PDGF Kinase %Inhibition observed with UniProtKB P09619 for CNS(=O)(=O)c1ccc2c(c1)C(=Cc1ccc(O)c([N+](=O)[O-])c1)C(=O)N2
Result :: -15.2

Query :: Enter reported PDGF Kinase %Inhibition observed with UniProtKB P09619 for CNS(=O)(=O)c1ccc2c(c1)C(=Cc1cc(O)ccc1O)C(=O)N2
Result :: 9.4

Query :: Enter reported PDGF Kinase %Inhibition observed with UniProtKB P09619 for CCCCN(CCCC)c1ccc(C=C2C(=O)Nc3ccc(I)cc32)cc1
Result :: 20.3

Query :: Enter reported PDGF Kinase %Inhibition observed with UniProtKB P09619 for O=C1Nc2c(Br)cc(Br)cc2C1=Cc1ccc(O)cc1O
Result :: 29.7

Query :: Enter reported PDGF Kinase %Inhibition observed with UniProtKB P09619 for Cc1cc(C=C2C(=O)Nc3ccc(CCCl)cc32)ccc1O
Result :: -0.8

Query :: Enter reported PDGF Kinase %Inhibition observed with UniProtKB P09619 for O=C1Nc2ccc(S(=O)(=O)Nc3ccc(C(F)(F)F)cc3)cc2C1=Cc1ccc(O)c([N+](=O)[O-])c1
Result :: 14.7

Query :: Enter reported PDGF Kinase %Inhibition observed with UniProtKB P09619 for O=C1Nc2ccc(I)cc2C1=Cc1cc([N+](=O)[O-])ccc1O
Result :: -59.6

Query :: Enter reported PDGF Kinase %Inhibition observed with UniProtKB P09619 for COc1cccc(C=C2C(=O)Nc3ccc(I)cc32)c1OC
Result :: 15.9

Query :: Enter reported PDGF Kinase %Inhibition observed with UniProtKB P09619 for COc1ccc(OC)c(C=C2C(=O)Nc3ccc(S(=O)(=O)NN4CCOCC4)cc32)c1
Result :: 7.2

====

Target: EGFR (Homo sapiens, UniProt P00533)
Construct: Add 7 ug A431 cell lysate per well (EGFR source); endogenous in cells; host or cells: A431
Experiment: EGFR ELISA assay (in vitro kinase activity, EGFR captured from A431 cell lysate)
Assay type: biochemical
Set-up: concentration or dose not given beside the values
For each record, write down the corresponding Biochem EGFR %Inhibition.
Please don't drop the unit; write it after the number.

Query :: Which Biochem EGFR %Inhibition value is on record for O=C1Nc2ccc(I)cc2C1=Cc1c(Br)cnn1-c1ccc(Cl)cc1 ?
Result :: 53.3%

Query :: Which Biochem EGFR %Inhibition value is on record for CNS(=O)(=O)c1ccc2c(c1)C(=Cc1cccn1C)C(=O)N2 ?
Result :: 4.9%

Query :: Which Biochem EGFR %Inhibition value is on record for COC(=O)c1[nH]c(C)c(C=C2C(=O)Nc3ccc(S(=O)(=O)N4CCOCC4)cc32)c1C(=O)OC ?
Result :: -6.3%

Query :: Which Biochem EGFR %Inhibition value is on record for O=C1Nc2ccc(S(=O)(=O)Nc3ccc(C(F)(F)F)cc3)cc2C1=Cc1ccc(C(=O)O)cc1 ?
Result :: -7.0%

Query :: Which Biochem EGFR %Inhibition value is on record for CNS(=O)(=O)c1ccc2c(c1)C(=Cc1c(OC)cc(OC)cc1OC)C(=O)N2 ?
Result :: -12.2%

Query :: Which Biochem EGFR %Inhibition value is on record for CCc1cc(CC)c(C=C2C(=O)Nc3ccc(I)cc32)[nH]1 ?
Result :: -2.8%

Query :: Which Biochem EGFR %Inhibition value is on record for CNS(=O)(=O)c1ccc2c(c1)C(=Cc1ccccc1O)C(=O)N2 ?
Result :: -24.1%

Query :: Which Biochem EGFR %Inhibition value is on record for O=C1Nc2ccc(S(=O)(=O)N3CCOCC3)cc2C1=CC(c1cccs1)C(F)(F)F (centres unmarked) ?
Result :: 23.1%

====

For each record, write down the corresponding Fik Kinase %Inhibition.
Target: FLK-1 receptor (Mus musculus)
Construct: expressed in transfected cells; host or cells: NIH3T3 C7#3
Sequence (P35918 20-1345): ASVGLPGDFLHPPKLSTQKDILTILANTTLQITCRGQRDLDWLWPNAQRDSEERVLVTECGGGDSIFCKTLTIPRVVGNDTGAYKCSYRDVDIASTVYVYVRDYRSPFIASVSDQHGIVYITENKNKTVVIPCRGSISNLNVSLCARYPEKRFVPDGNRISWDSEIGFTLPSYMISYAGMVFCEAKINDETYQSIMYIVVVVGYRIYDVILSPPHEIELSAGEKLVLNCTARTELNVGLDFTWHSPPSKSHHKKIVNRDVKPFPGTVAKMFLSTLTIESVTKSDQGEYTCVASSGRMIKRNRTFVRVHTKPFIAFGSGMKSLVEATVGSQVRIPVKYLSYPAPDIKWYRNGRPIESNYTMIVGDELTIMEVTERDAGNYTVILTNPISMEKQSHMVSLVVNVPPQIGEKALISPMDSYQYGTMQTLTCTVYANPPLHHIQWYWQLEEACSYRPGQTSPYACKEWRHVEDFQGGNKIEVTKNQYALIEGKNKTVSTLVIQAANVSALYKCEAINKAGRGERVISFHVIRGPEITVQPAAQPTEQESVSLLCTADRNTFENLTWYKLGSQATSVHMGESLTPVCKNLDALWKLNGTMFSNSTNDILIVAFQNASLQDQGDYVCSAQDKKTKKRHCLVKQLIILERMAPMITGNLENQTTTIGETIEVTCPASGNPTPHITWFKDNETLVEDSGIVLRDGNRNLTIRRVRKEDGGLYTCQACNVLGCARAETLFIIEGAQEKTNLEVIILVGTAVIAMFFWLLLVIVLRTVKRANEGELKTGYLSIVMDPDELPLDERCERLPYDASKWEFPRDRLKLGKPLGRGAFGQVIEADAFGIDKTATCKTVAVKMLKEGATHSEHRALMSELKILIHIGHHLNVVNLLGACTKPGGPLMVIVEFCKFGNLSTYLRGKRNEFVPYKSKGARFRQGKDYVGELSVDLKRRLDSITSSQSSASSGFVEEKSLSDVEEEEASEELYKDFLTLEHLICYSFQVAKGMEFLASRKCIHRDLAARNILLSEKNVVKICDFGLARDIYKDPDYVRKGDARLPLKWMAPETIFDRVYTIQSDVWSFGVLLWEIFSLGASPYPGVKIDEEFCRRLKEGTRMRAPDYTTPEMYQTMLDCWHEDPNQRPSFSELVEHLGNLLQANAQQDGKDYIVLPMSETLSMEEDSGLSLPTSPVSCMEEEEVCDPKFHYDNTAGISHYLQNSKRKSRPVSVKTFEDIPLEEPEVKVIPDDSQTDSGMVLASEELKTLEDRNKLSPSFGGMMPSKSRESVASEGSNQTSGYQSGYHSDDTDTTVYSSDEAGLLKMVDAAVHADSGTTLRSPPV
Experiment: FLK-1 ELISA (kinase activity of the FLK-1 receptor in FLK-1/NIH3T3 cells, VEGF stimulated)
Type: cell-based
Description: An enzyme linked immunosorbent assay (ELISA) was conducted to measure the catalytic activity of the FLK-1 receptor and more specifically, the inhibition or activation of indolinone compounds on the catalytic activity of the FLK-1 receptor. Specifically, the following assay was conducted to measure catalytic activity of the FLK-1 receptor in FLK-1/NIH3T3 cells. […]
Kindly provide the numeric value in % only, without the unit symbol.

Query :: Which Fik Kinase %Inhibition value is on record for O=C1Nc2ccc(I)cc2C1=Cc1cccnc1 ?
Result :: -14.7

Query :: Which Fik Kinase %Inhibition value is on record for Cc1cc2occ(C=C3C(=O)Nc4ccc(Br)c(C)c43)c(=O)c2cc1C ?
Result :: 4.5

Query :: Which Fik Kinase %Inhibition value is on record for CNS(=O)(=O)c1ccc2c(c1)C(=Cc1coc3ccc([N+](=O)[O-])cc3c1=O)C(=O)N2 ?
Result :: 12.3

Query :: Which Fik Kinase %Inhibition value is on record for O=C1Nc2ccc(I)cc2C1=Cc1ccc(O)cc1O ?
Result :: 1.0

Query :: Which Fik Kinase %Inhibition value is on record for Cc1c(Br)ccc2c1C(=Cc1cccn1C)C(=O)N2 ?
Result :: -0.8

Query :: Which Fik Kinase %Inhibition value is on record for CSc1ccc(C=C2C(=O)Nc3ccc(Br)c(C)c32)cc1 ?
Result :: -2.5

Query :: Which Fik Kinase %Inhibition value is on record for COc1cc(Br)c(O)c(C=C2C(=O)Nc3c(Br)cc(Br)cc32)c1 ?
Result :: 7.6

Query :: Which Fik Kinase %Inhibition value is on record for CCOC(=O)c1c(C)[nH]c(C=C2C(=O)Nc3ccc(I)cc32)c1C ?
Result :: 7.0

Query :: Which Fik Kinase %Inhibition value is on record for Cc1c(Br)ccc2c1C(=Cc1cc(Br)c(O)c(C(C)(C)C)c1)C(=O)N2 ?
Result :: 21.1

====

Test system: MET
Test: MET biochemical kinase assay
Design: species or system human; concentration or dose not given beside the values
Note that class boundaries on Met Kinase % Inhibition are group 1: < 40%; group 2: ≥ 40% and < 60%; group 3: ≥ 60%

Query :: Which class does O=C1Nc2ccc(S(=O)(=O)N3CCOCC3)cc2C1=Cc1ccc(Cl)s1 fall in?
Result :: group 2

Query :: Which class does O=C1Nc2ccc(S(=O)(=O)Nc3ccc(C(F)(F)F)cc3)cc2C1=Cc1c(F)cc(F)cc1F fall in?
Result :: group 1

Query :: Which class does Cc1ccsc1C=C1C(=O)Nc2ccc(Br)c(C)c21 fall in?
Result :: group 1

Query :: Which class does CC(C)(C)c1cc(C=C2C(=O)Nc3ccc(CCCl)cc32)cc(Cl)c1OCc1ccccc1 fall in?
Result :: group 2

Query :: Which class does COc1ccc(C=C2C(=O)Nc3ccc(S(=O)(=O)N4CCOCC4)cc32)c(OC)c1OC fall in?
Result :: group 1

Query :: Which class does O=C1Nc2ccc(S(=O)(=O)N3CCOCC3)cc2C1=Cc1ccc(F)cc1 fall in?
Result :: group 1

Query :: Which class does O=C1Nc2c(Br)cc(Br)cc2C1=Cc1cccc(Br)c1 fall in?
Result :: group 3

Query :: Which class does CNS(=O)(=O)c1ccc2c(c1)C(=Cc1cc(Cl)cc(Br)c1O)C(=O)N2 fall in?
Result :: group 3

Query :: Which class does CC(C)(C)c1cc(C=C2C(=O)Nc3ccc(S(=O)(=O)N4CCOCC4)cc32)cc(Br)c1O fall in?
Result :: group 3

Query :: Which class does Cc1c(Br)ccc2c1C(=CC1C=CCCC1)C(=O)N2 (stereo not shown) fall in?
Result :: group 2

Query :: Which class does CCN(CC)c1ccc(C=C2C(=O)Nc3ccc(Br)c(C)c32)c(O)c1 fall in?
Result :: group 2

Query :: Which class does CNS(=O)(=O)c1ccc2c(c1)C(=Cc1ccc(OC)cc1OC)C(=O)N2 fall in?
Result :: group 1

Query :: Which class does COc1cc(C)cc(O)c1C=C1C(=O)Nc2ccc(S(=O)(=O)Nc3ccc(C(F)(F)F)cc3)cc21 fall in?
Result :: group 1

Query :: Which class does Cc1c(Br)ccc2c1C(=Cc1cc(C(C)C)c(O)c(C(C)C)c1)C(=O)N2 fall in?
Result :: group 1

Query :: Which class does O=C1Nc2ccc(I)cc2C1=Cc1ccc(C(F)(F)F)cc1 fall in?
Result :: group 3

Query :: Which class does Cc1c(Br)ccc2c1C(=Cc1c[nH]c3ccccc13)C(=O)N2 fall in?
Result :: group 2

Query :: Which class does Cc1c(Br)ccc2c1C(=Cc1ccc(Br)o1)C(=O)N2 fall in?
Result :: group 2

Query :: Which class does COc1cccc(C=C2C(=O)Nc3ccc(I)cc32)c1O fall in?
Result :: group 3

Reference for the values: patent EP1247803A2
